Reference source: patent US8530465B2

Tested on: MALME-3M
PROCEDURE TEXT: NCI drug screen, MALME-3M
Type: cell-based, human
CONDITION CONTEXT: MALME-3M (Melanoma); 1.00E−5 Molar
Provide the recorded Growth Percent for the entries that follow.
One number for each entry, in %.

[
  {
    "MOL SMILES": "Cc1ccc(C(=O)Nc2c(NC(=O)CN3CCCC3)ccc3c2C(=O)c2ccccc2C3=O)cc1",
    "READING UNIT": "%",
    "Growth Percent": 82.24
  }
]

Provide Growth Percent values for the following items, in order.
1. Cc1ccc(C(=O)Nc2c(NC(=O)CN3CCN(C)CC3)ccc3c2C(=O)c2ccccc2C3=O)cc1
2. O=C(CCl)Nc1ccc2c(c1NC(=O)Cc1ccccc1)C(=O)c1ccccc1C2=O
3. Cc1ccc(C(=O)Nc2ccc3c(c2NC(=O)c2ccc(C)cc2)C(=O)c2ccccc2C3=O)cc1
4. Cc1ccc(C(=O)Nc2c(NC(=O)CCl)ccc3c2C(=O)c2ccccc2C3=O)cc1

1: 10.84; 2: 47.07; 3: 127.16; 4: −22.41
